Tested on: H226
Assay: ATP luminescence proliferation assay, H226
Type: cell-based, human
Conditions: Homo sapiens, NCI-H226, 72 h incubation period, read-out: EC50 against the H226 cell line
measuredMetric: EC50

compound | systemName | result
CCCN(C(=O)[C@@H](NC(=O)[C@H]1CCCCN1C)[C@@H](C)CC)[C@H](C[C@@H](OC(C)=O)c1nc(C(=O)N[C@@H](Cc2ccccc2)C(=O)OC)cs1)C(C)C | H226 | 1.61 nM
CCCN(C(=O)[C@@H](NC(=O)[C@H]1CCCCN1C)[C@@H](C)CC)[C@H](C[C@@H](OC(C)=O)c1nc(C(=O)N[C@@H](Cc2ccc(N)cc2)CC(C)C(=O)OCC)cs1)C(C)C (some centres unmarked) | H226 | 0.67 to 1.16 nM
